All values here come from PubChem BioAssay (NCATS).

# ASSAY COMMENT: qHTS of pediatric cancer cell lines to identify multiple opportunities for drug repurposing: Confirmatory screen for LAN-5 cells (AID 1347113); further: nearly all actives have a fitted effect of over 65% in size; further: potency means the concentration at half of the fitted maximal effect
# TEST CONDITIONS: LAN-5 neuroblastoma cell viability; series mostly up to 45.9 µM
Records with an inconclusive call do not appear. Active and inactive are the calls of the source. The call rests on the fitted dose curve; in most records, active means well fitted cell-killing curve with a large enough effect; inconclusive means small, poorly fitted or top-dose-only effect, or effect the other way; inactive means no such curve, though single readings can be large or run the other way.
TEST READOUT: Potency

CC[C@@]1([C@@H]2O[C@@H]([C@H]3O[C@@](O)(CO)[C@H](C)C[C@H]3C)C[C@H]2C)CC[C@H]([C@]2(C)CC[C@]3(C[C@H](O)[C@@H](C)[C@@H]([C@@H](C)[C@@H](OC)[C@H](C)C(=O)O)O3)O2)O1; 0.362 µM (active)
CCOC(=O)[C@@H](N)Cc1ccc(-c2cc(O[C@H](c3ccc(Cl)cc3-n3ccc(C)n3)C(F)(F)F)nc(N)n2)cc1; 23.3 µM (active)
C[C@H]1[C@@H](OC(=O)CCC(=O)O)O[C@@H]2O[C@@]3(C)CC[C@@H]4[C@H](C)CC[C@@H]1[C@@]24OO3; 16.5 µM (active)
COc1cc(C=CC(=O)CC(=O)C=Cc2ccc(O)c(OC)c2)ccc1O; 26.9 µM (active)
COc1cc2c(cc1OC)[C@@H]1C(=O)c3ccc4c(c3O[C@@H]1CO2)C=CC(C)(C)O4; 3.69 µM (active)
Cc1[nH]c(C=C2C(=O)Nc3ccccc32)c(C)c1CCC(=O)O; inactive

Please give Potency, item by item, for the list that follows.
1. CC[C@]12C=CCN3CC[C@@]4(c5cc([C@@]6(C(=O)OC)C[C@H]7C[C@@H](C(C)(F)F)CN(Cc8c6[nH]c6ccccc86)C7)c(OC)cc5N(C)[C@H]4[C@@](O)(C(=O)OC)[C@H]1OC(C)=O)[C@@H]32
2. Cc1cnc(Nc2ccc(CN3CCOCC3)cc2)nc1Nc1cccc(S(=O)(=O)NC(C)(C)C)c1
3. COc1ccc(S(=O)(=O)Nc2cccnc2Nc2ccc(O)cc2)cc1
4. Cc1ccc([N+](=O)[O-])cc1S(=O)(=O)N(C)N=Cc1cnc2ccc(Br)cn12
5. CCOC(=O)C1=C(C)NC(=S)NC1c1cccc(O)c1 (stereo not drawn)

1. inactive
2. 14.7 µM (active)
3. 1.65 µM (active)
4. 0.522 µM (active)
5. inactive

---

# ASSAY COMMENT: qHTS of pediatric cancer cell lines to identify multiple opportunities for drug repurposing: Primary screen for RD cells (AID 1347104); further: nearly all actives have a fitted effect of over 55% in size
# TEST CONDITIONS: RD rhabdomyosarcoma viability, CellTiter-Glo luminescence, 48 h; series mostly up to 46 µM
Records with an inconclusive call do not appear. The source made the active and inactive calls. Calls come from the whole dose curve; as a rule, active = well fitted cell-killing curve with a large enough effect; inconclusive = small, poorly fitted or top-dose-only effect; inactive = flat fitted curve, though single readings scatter. Non-standard residues stand in square brackets, D forms with d. Residues, ends and D or L forms follow the SMILES beside them. *: point of attachment. Nva = CCC[C@H](N)C(=O)O; Cbz = O=C(OCc1ccccc1)*
Allowed answers: T (active), F (inactive)

Recorded results for 2 compounds are shown here.
CCc1cc(C(C)=NOCc2ccc(C3CCCCC3)c(C(F)(F)F)c2)ccc1CN1CC(C(=O)O)C1; T
CCC[C@@H](C=O)NC(=O)[C@H](CC(C)C)NC(=O)[C@H](CC(C)C)NC(=O)OCc1ccccc1 (Cbz-Leu-Leu-[Nva]-aldehyde); T

Just curious, what result did COc1ccc(CCC(=O)c2c(O)cc(O[C@@H]3O[C@H](CO)[C@@H](O)[C@H](O)[C@@H]3O[C@@H]3O[C@@H](C)[C@H](O)[C@@H](O)[C@@H]3O)cc2O)cc1O get here?
T

What call does the record list for CC(=O)N[C@@H]1[C@H](O[C@@H]2c3ccc(c(Cl)c3)Oc3cc4cc(c3O[C@H]3O[C@H](CO)[C@@H](O)[C@H](O)[C@H]3NC(=O)CCCCCCCC(C)C)Oc3ccc(cc3Cl)C[C@H]3NC(=O)[C@H](N)c5ccc(O)c(c5)Oc5cc(O)cc(c5)[C@H](NC3=O)C(=O)N[C@H]4C(=O)N[C@H]3C(=O)N[C@@H]2C(=O)N[C@@H](C(=O)O)c2cc(O)cc(O[C@H]4O[C@H](CO)[C@@H](O)[C@H](O)[C@H]4O)c2-c2cc3ccc2O)O[C@H](CO)[C@@H](O)[C@@H]1O ?
F

---

# ASSAY COMMENT: Quantitative High-Throughput drug screen in 47 multiple myeloma cell lines against the NCATS MIPE library collection: OCIMY1_PLB cell viability assay (AID 1918979); further: nearly all actives have a fitted effect of over 35% in size;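 on viability: 100% = DMSO-only wells and 0% = cell-free media-only wells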
# TEST CONDITIONS: OCI-MY1 myeloma viability, CellTiter-Glo ATP, 48 h; series mostly up to 45.8 µM
Results filed as inconclusive are left out. Active and inactive are the calls of the source. The call rests on the fitted dose curve; in most records, active means well fitted cell-killing curve with a large enough effect; inconclusive means small, poorly fitted or top-dose-only effect, or effect the other way; inactive means no such curve, though single readings can be large or run the other way. Starred links: 1 amine or outer side, 2 acyl side, 3 side chain; linkers in the order of their positions; H or OH if unused. Positions of bridges follow the written chain, without caps; N, C: chain ends. Non-standard residues stand in square brackets, D forms with d. Residues, ends and D or L forms follow the SMILES beside them. Chains are numbered I, II in the order given. Actinocin(9to1) = Cc1c2oc3c(C)ccc(C(=O)[*:1])c3nc-2c(C(=O)[*:2])c(N)c1=O; NMeV = CN[CH](C(=O)O)C(C)C; Sar = CNCC(=O)O
Pick from 1 (active), 0 (inactive) when you respond.

O=C(CCCCCCC(=O)Nc1cccnc1)NO; 1
C[N+]1(C)[C@@H]2C[C@@H](OC(=O)C(O)(c3cccs3)c3cccs3)C[C@H]1[C@@H]1O[C@@H]12; 0
CCCNC(=O)[C@H]1O[C@H]1C(=O)N[C@H](C(=O)N1CCC[C@@H]1C(=O)OC)C(C)CC (stereo partly drawn); 1
CCNC(=O)c1cc2c(-c3cc(OCCN4CCCC4)c(Cl)cc3Cl)nc(N)nc2s1; 1
C[C@@H]1[C@H](C)CC[C@]2(C(=O)O)CC[C@]3(C)C(=CC[C@@H]4[C@@]5(C)C[C@@H](O)[C@H](O)[C@@](C)(CO)[C@H]5CC[C@]43C)[C@@H]12; 0
NC(=NCCCCCCN=C(N)N=C(N)Nc1ccc(Cl)cc1)N=C(N)Nc1ccc(Cl)cc1; 1

Please share the test call associated with O=C1NC(O)CCN1[C@@H]1O[C@H](CO)[C@H](O)[C@H]1O (stereo partly drawn) .
0

Record lookup: outcome of this test for C=C1C(=CC=C2CCC[C@]3(C)[C@@H]([C@H](C)CCCC(C)(C)O)CC[C@@H]23)C[C@@H](O)C[C@@H]1O ?
0

Outcome? CS[C@H]1SC[C@@H]2C(=O)N(C)[C@H](C(C)C)C(=O)OC[C@H](NC(=O)c3cnc4ccccc4n3)C(=O)N[C@H](C)C(=O)N(C)[C@@H]1C(=O)N(C)[C@H](C(C)C)C(=O)OC[C@H](NC(=O)c1cnc3ccccc3n1)C(=O)N[C@H](C)C(=O)N2C
1

For C[C@]12CCC(=O)C=C1[C@@H]1CC1[C@H]1[C@H]3[C@@H]4C[C@H]4[C@@]4(CCC(=O)O4)[C@@]3(C)CC[C@H]12 (stereo partly drawn) , which call appears in the assay record?
0

Which outcome was entered for the compound CCCCCCCCCCCC(CC1OC(=O)C1CCCCCC)OC(=O)C(CC(C)C)NC=O (stereo not drawn) in this test?
0

Look up the recorded call for CCN(CC)Cc1ccc2cc(COC(=O)Nc3ccc(C(=O)NO)cc3)ccc2c1 in this test.
1

Status in this test for Cc1c2oc3c(C)ccc(C(=O)NC4C(=O)NC(C(C)C)C(=O)N5CCCC5C(=O)N(C)CC(=O)N(C)C(C(C)C)C(=O)OC4C)c3nc-2c(C(=O)NC2C(=O)NC(C(C)C)C(=O)N3CCCC3C(=O)N(C)CC(=O)N(C)C(C(C)C)C(=O)OC2C)c(N)c1=O (stereo not drawn) (I: TVP[Sar][NMeV] / II: TVP[Sar][NMeV]; ester I:1-I:C, II:1-II:C; linker I:N-II:N via Actinocin(9to1); configuration not given here) ?
0

---

# ASSAY COMMENT: Quantitative High-Throughput drug screen in 47 multiple myeloma cell lines against the NCATS MIPE library collection: PCM6_Riken cell viability assay (AID 1919870); further: nearly all actives have a fitted effect of over 30% in size
# TEST CONDITIONS: CellTiter-Glo ATP, 48 h; series mostly up to 45.8 µM
Records with an inconclusive call do not appear. Active and inactive are the calls of the source. Calls follow the shape of the dose curve; as a rule, active = well fitted cell-killing curve with a large enough effect; inconclusive = small, poorly fitted or top-dose-only effect, or effect the other way; inactive = no such curve, though single readings can be large or run the other way.
Hi there, use one of these labels in your reply, thanks! Y = active, N = inactive

Would you mind telling me which call this test gave Cn1cc(C=CC(=O)c2cccc(F)c2)cc1C=CC(=O)NO ?
Y

# fetch the recorded call for O=[N+]([O-])c1cn2c(n1)OC[C@@H](OCc1ccc(OC(F)(F)F)cc1)C2 here
N

Write down the call the test reported for this compound. Item: COc1ccc(C=Cc2cc(OC)c(OC)c(OC)c2)cc1NC(=O)[C@H](N)CO
Y

Call for entry Cn1cnc(=N)c2[nH]cnc21 :
Y

Status in this test for CC(C)OC(=O)[C@H](C)N[P@](=O)(OC[C@H]1O[C@@H](n2ccc(=O)[nH]c2=O)[C@](C)(F)[C@H]1O)Oc1ccccc1 ?
N

How did this test come out for CC(=O)O[C@@]12CO[C@H]1C[C@H](O)[C@@]1(C)C(=O)[C@H](O)C3=C(C)[C@@H](OC(=O)C(O)[C@@H](NC(=O)OC(C)(C)C)c4ccccc4)C[C@@](O)([C@@H](OC(=O)c4ccccc4)[C@@H]21)C3(C)C (stereo partly drawn) ?
N

// outcome(item) with item = C[C@H](NC(=O)[C@@H](O)c1cc(F)cc(F)c1)C(=O)N[C@@H]1C(=O)N(C)c2ccccc2-c2ccccc21
N

Recorded test call requested for CCOC(=O)C1=C(C)NC(=S)NC1c1cccc(O)c1 (stereo not drawn)
Y
